Each item that follows carries a reported pKd.
Biological target: T1, EsCas13d, nuclease-dead (Eubacterium siraeum, UniProt B0MS50, R295A;H300A;R849A;H854A)
T1 sequence: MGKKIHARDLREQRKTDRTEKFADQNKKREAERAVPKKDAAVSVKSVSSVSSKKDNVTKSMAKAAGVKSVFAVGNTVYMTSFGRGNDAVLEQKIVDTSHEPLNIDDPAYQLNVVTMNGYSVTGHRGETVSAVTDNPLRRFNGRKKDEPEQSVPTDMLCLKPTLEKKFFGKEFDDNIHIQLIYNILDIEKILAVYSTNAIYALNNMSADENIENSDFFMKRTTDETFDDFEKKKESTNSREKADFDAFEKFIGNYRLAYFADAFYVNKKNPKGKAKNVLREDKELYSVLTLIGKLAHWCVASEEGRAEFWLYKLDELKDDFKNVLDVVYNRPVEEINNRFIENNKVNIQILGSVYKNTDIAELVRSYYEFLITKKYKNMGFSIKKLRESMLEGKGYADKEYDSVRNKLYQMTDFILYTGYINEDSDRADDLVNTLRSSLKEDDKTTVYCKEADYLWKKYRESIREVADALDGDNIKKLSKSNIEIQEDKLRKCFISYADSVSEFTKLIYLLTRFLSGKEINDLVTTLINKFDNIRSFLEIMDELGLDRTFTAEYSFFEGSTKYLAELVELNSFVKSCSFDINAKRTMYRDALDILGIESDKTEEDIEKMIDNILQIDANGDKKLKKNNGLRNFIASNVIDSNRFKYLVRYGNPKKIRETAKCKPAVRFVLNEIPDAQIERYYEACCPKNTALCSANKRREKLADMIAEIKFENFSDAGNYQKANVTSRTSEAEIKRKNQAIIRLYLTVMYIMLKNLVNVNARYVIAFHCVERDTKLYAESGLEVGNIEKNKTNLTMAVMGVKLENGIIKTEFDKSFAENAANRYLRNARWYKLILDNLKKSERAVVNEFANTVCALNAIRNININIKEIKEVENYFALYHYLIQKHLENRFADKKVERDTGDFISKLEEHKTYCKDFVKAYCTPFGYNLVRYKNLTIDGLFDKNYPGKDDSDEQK
Assay: crRNA (strand 1, pre-loaded); Mg2+; 40 mM Tris-HCl pH 7.5, 150 mM NaCl, 6 mM MgCl2, 1 mM DTT, 0.1% Tween-20, 0.2 mg/ml BSA; 25 C; 10 min per concentration, then washed
Details: tags: His6-TwinStrep-SUMO cleaved; N-terminal SNAP kept (SNAP-Surface 488); label: 3' end held by stalled T7 RNA polymerase
A value of pKd is the negative decimal logarithm of a concentration given in moles per litre.

binder="target 2 MT 5'PFS GGG 3'PFS ACG (mixed) RNA 1: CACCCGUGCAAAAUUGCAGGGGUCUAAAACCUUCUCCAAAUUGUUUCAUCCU RNA 2: GGGAAUGGAUCCACAUCUACGAAUUCGGGAGGAUGAAACAAUUUGGAGAAGACGAGAUCGGAAGAGCACACGU" data_value=7.98

Problem: Answer with the recorded pKd for the binder listed here: target 1 insA 3' of 11,insC 3' of 1 (mixed) RNA 1: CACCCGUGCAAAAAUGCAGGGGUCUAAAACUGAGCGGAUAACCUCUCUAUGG RNA 2: GGGAAUGGAUCCACAUCUACGAAUUCGUACCAUAGAGAGGUAUAUCCGCUCACCCGAGAUCGGAAGAGCACACGU
Solution: 7.80

Problem: Answer with the recorded pKd for the binder listed here: target 1 complement block 3-6 (mixed) RNA 1: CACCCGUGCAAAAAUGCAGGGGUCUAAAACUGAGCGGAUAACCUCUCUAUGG RNA 2: GGGAAUGGAUCCACAUCUACGAAUUCGUACCAUAGAGAGGUUAUCGCGACACCGAGAUCGGAAGAGCACACGU
Solution: 8.23

Problem: Answer with the recorded pKd for the binder listed here: target 2 MT 5'PFS ACU 3'PFS ACA (mixed) RNA 1: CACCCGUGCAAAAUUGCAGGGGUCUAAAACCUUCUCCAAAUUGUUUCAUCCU RNA 2: GGGAAUGGAUCCACAUCUACGAAUUCACUAGGAUGAAACAAUUUGGAGAAGACAAGAUCGGAAGAGCACACGU
Solution: 8.38

Problem: Answer with the recorded pKd for the binder listed here: target 3 G3C,A12G (mixed) RNA 1: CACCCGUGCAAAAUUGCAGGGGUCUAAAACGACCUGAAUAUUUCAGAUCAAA RNA 2: GGGAAUGGAUCCACAUCUACGAAUUCGUUUUUGAUCUGAGAUAUUCAGCUCUGCAGAUCGGAAGAGCACACGU
Solution: 7.00

Problem: Answer with the recorded pKd for the binder listed here: target 2 MT 5'PFS ACC 3'PFS CUG (mixed) RNA 1: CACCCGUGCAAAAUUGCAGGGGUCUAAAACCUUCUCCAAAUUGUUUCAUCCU RNA 2: GGGAAUGGAUCCACAUCUACGAAUUCACCAGGAUGAAACAAUUUGGAGAAGCUGAGAUCGGAAGAGCACACGU
Solution: 8.05
